Catalogue of MIC values
# Test system: Proteus rettgeri GN466
# method: Antibacterial MIC, standard serial dilution
# Type: cell-based
# studyConditions: nutrient agar, 37° C., 17 hours, as free base
A number alone suffices; assume µg/mL.

Solved cases below.
compound | measurementKind | recordedValue
CNC[C@@H]1CC[C@@H](N)[C@@H](O[C@H]2[C@H](O)[C@H](N(C)C(=O)CN)[C@@H](OC)C[C@H]2N)O1 | MIC | 0.78
CNCC1CCC(N)C(OC2C(N)CC(O)C(N(C)C(=O)CNC=N)C2O)O1 (centres unmarked) | MIC | 0.39
CNCC1CCC(N)C(OC2C(N)CC(O)C(N(C)C(=O)CN)C2O)O1 (centres unmarked) | MIC | 0.39

Proceeding to the next compound to report its MIC.
Quick one: MIC of CNCC1CCC(N)C(OC2C(N)CCC(N(C)C(=O)CN)C2O)O1 (centres unmarked) ? 0.39
